Recorded values, source patent US11312676B2.

assayed system: SRC-3 (Homo sapiens, UniProt Q9Y6Q9)
Construct: expressed in transfected cells; host or cells: HeLa
Sequence (Q9Y6Q9 whole entry): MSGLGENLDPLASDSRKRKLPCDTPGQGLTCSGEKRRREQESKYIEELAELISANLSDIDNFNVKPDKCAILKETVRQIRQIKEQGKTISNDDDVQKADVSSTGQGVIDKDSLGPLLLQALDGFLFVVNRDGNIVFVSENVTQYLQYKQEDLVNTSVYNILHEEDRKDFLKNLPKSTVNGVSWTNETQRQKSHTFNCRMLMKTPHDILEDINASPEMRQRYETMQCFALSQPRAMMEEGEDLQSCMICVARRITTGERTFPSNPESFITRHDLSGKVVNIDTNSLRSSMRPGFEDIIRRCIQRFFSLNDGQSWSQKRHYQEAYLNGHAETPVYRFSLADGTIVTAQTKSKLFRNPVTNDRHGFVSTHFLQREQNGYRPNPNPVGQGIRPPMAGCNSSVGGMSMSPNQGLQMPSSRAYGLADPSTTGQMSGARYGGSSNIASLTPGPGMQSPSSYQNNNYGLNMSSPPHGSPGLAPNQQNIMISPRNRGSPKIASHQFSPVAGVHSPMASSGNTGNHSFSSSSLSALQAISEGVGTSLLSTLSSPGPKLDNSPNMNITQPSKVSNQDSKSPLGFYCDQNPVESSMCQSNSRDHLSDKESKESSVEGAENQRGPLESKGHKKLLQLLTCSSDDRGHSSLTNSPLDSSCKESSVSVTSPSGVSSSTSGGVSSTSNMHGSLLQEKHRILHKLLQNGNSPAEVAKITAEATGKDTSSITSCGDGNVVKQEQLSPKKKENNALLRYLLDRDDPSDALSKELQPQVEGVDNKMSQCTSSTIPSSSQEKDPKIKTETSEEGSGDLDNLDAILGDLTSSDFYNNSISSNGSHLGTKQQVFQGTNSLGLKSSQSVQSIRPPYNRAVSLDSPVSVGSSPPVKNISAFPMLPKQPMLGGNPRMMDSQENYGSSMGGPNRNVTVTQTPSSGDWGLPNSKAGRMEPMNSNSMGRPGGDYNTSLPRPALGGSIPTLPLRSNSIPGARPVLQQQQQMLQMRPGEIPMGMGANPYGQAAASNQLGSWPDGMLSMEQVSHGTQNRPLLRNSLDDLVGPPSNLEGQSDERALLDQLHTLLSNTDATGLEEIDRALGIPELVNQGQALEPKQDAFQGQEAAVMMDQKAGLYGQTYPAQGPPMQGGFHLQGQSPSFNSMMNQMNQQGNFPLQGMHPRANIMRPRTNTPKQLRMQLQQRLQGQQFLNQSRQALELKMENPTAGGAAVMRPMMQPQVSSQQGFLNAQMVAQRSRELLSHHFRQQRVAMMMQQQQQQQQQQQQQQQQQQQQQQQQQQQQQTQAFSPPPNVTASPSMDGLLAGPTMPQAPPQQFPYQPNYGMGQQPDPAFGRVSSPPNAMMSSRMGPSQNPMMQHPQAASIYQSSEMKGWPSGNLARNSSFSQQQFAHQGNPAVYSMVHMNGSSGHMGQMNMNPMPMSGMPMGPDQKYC
run description: Gal4 luciferase reporter assay (pBIND-SRC-3 + pG5-LUC) in HeLa cells
Assay type: cell-based
particulars: co-treatment with MCB-613, 24 hours
Peptide text beside a SMILES is read from it. * marks the point of attachment. Cbz = O=C(OCc1ccccc1)*; CH2F = FC*
assay endpoint: effect on activation of SRC-3 by MCB-613

1. COC(=O)C[C@H](NC(=O)[C@H](C)NC(=O)[C@@H](NC(=O)OCc1ccccc1)C(C)C)C(=O)CF [z-VAD-fmk] (Cbz-Val-Ala-Asp(OMe)-CH2F) | did not inhibit
2. CCN(CC)CCCC(C)Nc1ccnc2cc(Cl)ccc12 (centres unmarked) | did not inhibit
3. Cn1cnc(N)c2ncnc1-2 | did not inhibit
